- ASSAY NAME: Toxicity in Mus musculus ddY (mouse) assessed as mortality at 500 mg/kg, ip after 1 day
- Type: organism-based
- Parameters: dose 500 mg/kg, route intraperitoneal
- EXPERIMENTAL PARAMETERS: in vivo
OBSERVED PROPERTY: mortality at 24 h (%)
Give the number; % is assumed, so skip it.

Q) If you can, please state the reported mortality at 24 h value of O=C(O)CN1C(=O)CSC1=S [RHODANINE-3-ACETIC ACID] .
A) 0

###

- ASSAY NAME: Toxicity in Mus musculus ddY (mouse) assessed as mortality at 7 mg/kg, ip after 1 day
- Assay type: organism-based
- Design: dose 7 mg/kg, route intraperitoneal
- EXPERIMENTAL PARAMETERS: in vivo
OBSERVED PROPERTY: mortality at 24 h

Q) Request the reported mortality at 24 h associated with NN1C(=O)CSC1=S
A) 80%

###

- ASSAY NAME: Toxicity in Mus musculus ddY (mouse) assessed as mortality at 8 mg/kg, ip after 7 days
- Type: organism-based
- Design: dose 8 mg/kg, route intraperitoneal
- EXPERIMENTAL PARAMETERS: in vivo
OBSERVED PROPERTY: mortality at 168 h (%)
Entry rule: numbers only, all in %.

Q) Which mortality at 168 h value belongs to NN1C(=O)CSC1=S ?
A) 100

###

- ASSAY NAME: Toxicity in Mus musculus ddY (mouse) assessed as mortality at 200 mg/kg, ip after 1 day
- Format: organism-based
- Set-up: dose 200 mg/kg, route intraperitoneal
- EXPERIMENTAL PARAMETERS: in vivo
OBSERVED PROPERTY: mortality at 24 h (%)
# value in %; strip the unit string

Q) So what does the record say about mortality at 24 h for CN1C(=O)CSC1=S [3-METHYL-RHODANINE] ?
A) 0

###

- ASSAY NAME: Toxicity in Mus musculus ddY (mouse) assessed as mortality at 375 mg/kg, ip after 3 days
- Format: organism-based
- Set-up: dose 375 mg/kg, route intraperitoneal
- EXPERIMENTAL PARAMETERS: in vivo
OBSERVED PROPERTY: mortality at 72 h (%)
Expressed in %, but write only the number.

Q) // mortality at 72 h lookup, key: O=C1CSC(=S)N1
A) 100

###

- ASSAY NAME: Toxicity in Mus musculus ddY (mouse) assessed as mortality at 3 mg/kg, ip after 7 days
- Assay type: organism-based
- Design: dose 3 mg/kg, route intraperitoneal
- EXPERIMENTAL PARAMETERS: in vivo
OBSERVED PROPERTY: mortality at 168 h
Returns: string containing the numeric result and its unit.

Q) Any idea what its mortality at 168 h is? The molecule is NN1C(=O)CSC1=S
A) 0%

###

- ASSAY NAME: Toxicity in Mus musculus ddY (mouse) assessed as mortality at 450 mg/kg, ip after 4 days
- Type: organism-based
- Set-up: dose 450 mg/kg, route intraperitoneal
- EXPERIMENTAL PARAMETERS: in vivo
OBSERVED PROPERTY: mortality at 96 h (%)
Express your answer in %, writing the number without its unit.

Q) Fill blank: measured mortality at 96 h of the molecule O=C(O)CN1C(=O)CSC1=S is ____.
A) 20

###

- ASSAY NAME: Toxicity in Mus musculus ddY (mouse) assessed as mortality at 600 mg/kg, ip after 3 days
- Assay type: organism-based
- Design: dose 600 mg/kg, route intraperitoneal
- EXPERIMENTAL PARAMETERS: in vivo
OBSERVED PROPERTY: mortality at 72 h (%)
API: value field is a number in %; no unit string.

Q) mortality at 72 h for O=C(O)CN1C(=O)CSC1=S ?
A) 60

###

- ASSAY NAME: Toxicity in Mus musculus ddY (mouse) assessed as mortality at 7 mg/kg, ip after 5 days
- Assay type: organism-based
- Design: dose 7 mg/kg, route intraperitoneal
- EXPERIMENTAL PARAMETERS: in vivo
OBSERVED PROPERTY: mortality at 120 h (%)
Kindly answer with a numeric value in %, unit omitted.

Q) Suppose we examine the compound NN1C(=O)CSC1=S ; what mortality at 120 h value has been reported?
A) 80

###

- ASSAY NAME: Toxicity in Mus musculus ddY (mouse) assessed as mortality at 5 mg/kg, ip after 5 days
- Assay type: organism-based
- Parameters: dose 5 mg/kg, route intraperitoneal
- EXPERIMENTAL PARAMETERS: in vivo
OBSERVED PROPERTY: mortality at 120 h (%)
Number in %, nothing else.

Q) // lookup mortality at 120 h for NN1C(=O)CSC1=S
A) 60

###

- ASSAY NAME: Toxicity in Mus musculus ddY (mouse) assessed as mortality at 400 mg/kg, ip after 2 days
- Assay type: organism-based
- Design: dose 400 mg/kg, route intraperitoneal
- EXPERIMENTAL PARAMETERS: in vivo
mortality at 48 h reference
Record the value in %, omitting the unit from your answer.

COMPOUND	mortality at 48 h / %
O=C1CSC(=S)N1 [RHODANINE]	100

For the next question, use this compound.
Q) Fill in the blank: the reported mortality at 48 h of O=C(O)CN1C(=O)CSC1=S [RHODANINE-3-ACETIC ACID] is ____.
A) 0

###

- ASSAY NAME: Toxicity in Mus musculus ddY (mouse) assessed as mortality at 650 mg/kg, ip after 4 days
- Type: organism-based
- Parameters: dose 650 mg/kg, route intraperitoneal
- EXPERIMENTAL PARAMETERS: in vivo
OBSERVED PROPERTY: mortality at 96 h (%)
Please reply with the bare figure in % and do not write the unit itself.

Q) Fill in the blank: the reported mortality at 96 h of O=C(O)CN1C(=O)CSC1=S is ____.
A) 100

###

- ASSAY NAME: Toxicity in Mus musculus ddY (mouse) assessed as mortality at 5 mg/kg, ip after 4 days
- Format: organism-based
- Set-up: dose 5 mg/kg, route intraperitoneal
- EXPERIMENTAL PARAMETERS: in vivo
OBSERVED PROPERTY: mortality at 96 h (%)
Numbers only; they are read as %.

Q) Entry under review: NN1C(=O)CSC1=S . Reported mortality at 96 h?
A) 60

###

- ASSAY NAME: Toxicity in Mus musculus ddY (mouse) assessed as mortality at 450 mg/kg, ip after 2 days
- Assay type: organism-based
- Set-up: dose 450 mg/kg, route intraperitoneal
- EXPERIMENTAL PARAMETERS: in vivo
OBSERVED PROPERTY: mortality at 48 h (%)
# value in %; strip the unit string

Q) Name the reported mortality at 48 h value associated with the compound O=C(O)CN1C(=O)CSC1=S [RHODANINE-3-ACETIC ACID]
A) 0

###

- ASSAY NAME: Toxicity in Mus musculus ddY (mouse) assessed as mortality at 550 mg/kg, ip after 4 days
- Format: organism-based
- Design: dose 550 mg/kg, route intraperitoneal
- EXPERIMENTAL PARAMETERS: in vivo
OBSERVED PROPERTY: mortality at 96 h
Returns: string containing the number followed by the unit.

Q) Value lookup for mortality at 96 h; key = O=C(O)CN1C(=O)CSC1=S
A) 80%

###

- System: Brassica rapa subsp. oleifera
- ASSAY NAME: Growth inhibition of Brassica rapa subsp. oleifera assessed as chlorophyll a level at 1 x 10^-4 M after 7 days
- Format: functional
- Set-up: scale not given: the % may be the effect or the level left
OBSERVED PROPERTY: Activity (%)
API: value field is a number in %; no unit string.

Illustrative cases are given below, each with its answer.
SMILES STRING	NUMERIC RESULT
O=C([O-])COc1ccc(Cl)cc1Cl.[Na+]	12.57
O=C(O)CN1C(=O)CSC1=S	14.1
O=C1CSC(=S)N1	6.76
CC(=O)NN1C(=O)CSC1=S	10.84
O=C(NN1C(=O)CSC1=S)c1ccccc1	11.46

Q) Which Activity reading was recorded for the compound CN1C(=O)CSC1=S ?
A) 15.61

Q) // query Activity value for entry NN1C(=O)CSC1=S
A) 8.05

###

- ASSAY NAME: Toxicity in Mus musculus ddY (mouse) assessed as mortality at 600 mg/kg, ip after 6 days
- Type: organism-based
- Set-up: dose 600 mg/kg, route intraperitoneal
- EXPERIMENTAL PARAMETERS: in vivo
OBSERVED PROPERTY: mortality at 144 h (%)
Entry rule: numbers only, all in %.

Q) Return reported mortality at 144 h; argument: O=C(O)CN1C(=O)CSC1=S
A) 80
